The origin of these recorded values is paper PMC2756588.

Target: T1, Fus1, P11710
T1 sequence (P11710 432-512, looked up): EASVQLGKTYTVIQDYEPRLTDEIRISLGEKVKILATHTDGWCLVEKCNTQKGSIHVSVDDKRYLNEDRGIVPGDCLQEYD
Experiment: SPOT array
Settings: median of control spots 1200
measured-quantity: SPOT intensity

Past entries and their recorded results:
INSERT INTO assay_data (binder, result_number) VALUES
  ('VQPTAAPATPPRHIS', 13),
  ('NTMKKRPAPPSLPSL', 0),
  ('VLRFLGFPLPIFEKG', 78),
  ('GDHPKGPPPPPPPPD', 0),
  ('DLFKPLPEPPTELGR', 0);

(I) QLMKNLPKIPLLNDI
(II) TSFKGRPKPPKTLKH
I would appreciate it if you could say which entry, I or II , has the lower SPOT intensity value. Lab log: write the label of the selected item as the result.
I
(I: 0, II: 1)

(I) QPQRTAPKPPISAPR
(II) FFRRSELYLPNSSKA
(III) SKIRPTPRKPSRMAT
Reorder: SPOT intensity, max to min. Return value: ordered labels per request.
II, III, I
(II: 37, III: 12, I: 0)
